- Measurement Description: qHTS assay to identify small molecule antagonists of the estrogen related receptor (ERR) signaling pathway (AID 1224819; also: nearly all actives have a fitted effect of over 50% in size)
- Reported Conditions: ERR reporter cell line, luciferase inhibition; series mostly up to 46.1 µM
Records with an inconclusive call do not appear. The source made the active and inactive calls. Calls follow the shape of the dose curve; as a rule, active = well fitted inhibition curve with a large enough effect in the repeat runs; inconclusive = weak or mixed curves; inactive = no such curve, though single readings can be large or run the other way.
Classes used: active, inactive

# Compound, Category
measured = [
    ("CC(C)C(=O)Nc1ccc([N+](=O)[O-])c(C(F)(F)F)c1", "active"),
    ("NS(=O)(=O)c1cc2c(cc1Cl)NCNS2(=O)=O", "inactive"),
    ("CCCCNC(=O)NS(=O)(=O)c1ccc(C)cc1", "inactive"),
    ("CC(C)NCC(O)c1ccc(O)c(O)c1 (stereo not drawn)", "inactive"),
    ("CN(C)CCOC(C)(c1ccccc1)c1ccccn1 (stereo not drawn)", "inactive"),
    ("Nc1ccc(O)c([N+](=O)[O-])c1", "inactive"),
    ("Cn1c(=O)c2c(ncn2C)n(C)c1=O", "inactive"),
    ("Nc1c2c(nc3ccccc13)CCCC2", "inactive"),
]
